Experiment: Metabolic stability in human liver microsomes assessed as compound remaining after 60 mins
Assay type: ADME, Microsome
Conditions: read-out: Stability
Reported remaining at 1 h values for a set of compounds
quantityName: remaining at 1 h (%)

In [3]: df
Out[3]:
                                 itemsmiles  u  value
0  COc1cc(N2CCN(C(C)=O)CC2)ccc1-c1nc2snc(C3CCCCC3)c2c(=O)[nH]1  %     68
1  COc1cc(N)ccc1-c1nc2snc(C3CCCCC3)c2c(=O)[nH]1  %     47

====

Reported inhibition values for a set of compounds
Target: High affinity 3',5'-cyclic-AMP phosphodiesterase 7A (Homo sapiens, UniProt Q13946)
Sequence (Q13946 whole entry): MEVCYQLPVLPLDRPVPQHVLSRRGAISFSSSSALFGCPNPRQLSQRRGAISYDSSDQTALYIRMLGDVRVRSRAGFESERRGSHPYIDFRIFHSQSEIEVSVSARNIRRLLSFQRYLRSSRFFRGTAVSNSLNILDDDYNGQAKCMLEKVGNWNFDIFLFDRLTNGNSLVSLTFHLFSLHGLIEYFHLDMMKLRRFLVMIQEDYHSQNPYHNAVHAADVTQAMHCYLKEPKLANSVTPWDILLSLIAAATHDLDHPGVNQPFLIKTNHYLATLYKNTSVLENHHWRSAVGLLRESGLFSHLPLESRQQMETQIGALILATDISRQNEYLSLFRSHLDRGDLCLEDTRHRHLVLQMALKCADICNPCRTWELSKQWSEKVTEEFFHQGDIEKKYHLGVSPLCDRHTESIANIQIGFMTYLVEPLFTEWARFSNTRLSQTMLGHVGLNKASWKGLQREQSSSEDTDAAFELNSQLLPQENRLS
Assay: Inhibition of human recombinant PDE7A at 1 uM
quantityName: inhibition

                                 itemsmiles  value
0  COc1cc(N)ccc1-c1nc2snc(-c3c(F)cccc3Cl)c2c(=O)[nH]1    93%
1  COc1cc(N)ccc1-c1nc2snc(-c3ccc(F)cc3F)c2c(=O)[nH]1    95%
2  COc1cc(N)ccc1-c1nc2snc(-c3ccccc3F)c2c(=O)[nH]1    95%
3  COc1cc(N)ccc1-c1nc2snc(-c3ccccc3Cl)c2c(=O)[nH]1    90%
4  COc1cc(N)ccc1-c1nc2snc(-c3ccc(F)cc3)c2c(=O)[nH]1    35%
5  COc1cc(N)ccc1-c1nc2snc(-c3cccc(F)c3)c2c(=O)[nH]1    75%
6  COc1cc(N)ccc1-c1nc2snc(-c3ccccc3)c2c(=O)[nH]1    70%
7  COc1cc(N)ccc1-c1nc2snc(-c3c(F)cccc3F)c2c(=O)[nH]1    95%
